- assay_procedure: yeast display, Sf9 membrane polyspecificity reagent, FACS + sequencing; frameworks hold sequencing errors
measurement_type: polyreactivity (PSR sort gate)

Note to self: polyreactivity (PSR sort gate) recorded for QVQLVETRGGLVQAGGSLRLTCAASGRTFEGYAMGWYRQAPGKEREFVAAITDGDSTYYADSVKGRFTISRDNAKNTVYLQMNSLKPEDTAVYYCAADRQTWYWYTAYLKYDYWGQGSQVTVSS was low polyreactivity

// polyreactivity (PSR sort gate) lookup, sequence = QVQLVESGGGLVQAGGSLRLSCAASGRTFKHNAMGWYRQAPGKERELVAAINQSGSSTYYADSVKGRFTISRDNAKNTVYLQMNSLKPEDTAVYYCAAGVFFFTFDYWGQGTQVTVSS , result: low polyreactivity

For QDQLVESGGGLVQAGGSLRLSCAASGRTFFGYAMGWYRQAPGKERELVAAITTSGGSTYYADSVKGRFTISRDNAKNTVYLQMNSLKPEDTAVYYCAARAYYGYYYWGQGTQVTVSS the sequence record lists polyreactivity (PSR sort gate) as low polyreactivity

----------
- assay_procedure: yeast display, Sf9 membrane polyspecificity reagent, FACS + sequencing; frameworks hold sequencing errors
measurement_type: polyreactivity (PSR sort gate)

Worked set:
Please fill in: polyreactivity (PSR sort gate) reported for QVQLVESGGGLVQAGGSLRLSCAASGRTFKYNAMGWYRQAPGKERELVAAIRKSGTRTYYADSVKGRFTISRDNAKNTVYLQMNSLKPEDTAVYYCNRVGFDYWGQGTQVTVSS = low polyreactivity

The recorded polyreactivity (PSR sort gate) for entry QVQLVESGGGLVQAGGSLRLSCAASGSIFNTYAMGWYRQAPGKEREFVASISRSGGSTRYADSVKGRFTISRDNAKNTVYLQMNSLIPEDTAVYYCAASWLGASGIRYDYWGQGTQVTVSS equals high polyreactivity

Noted for QVQLVESGGGLVQAGGSLRLICAASGRICISNAMGWYRQAPGKERELVAAITWIGDRTYYADSVKGRFTISRDNAKNTVYLQMISLKPEDTAVYYCAADSYSPYTMDYWRQGTQVTVSS : its polyreactivity (PSR sort gate) reads high polyreactivity

The sequence QVQLVESGGGLVQAGGSLRLSSAASGSTSCPYAMGWYRQAPGKERELVATISWIGDRTYYADSVKGRFTISRDNAKNTFYLQMNSLKPEDTAVYYCNADYRGYANLEGDYWGQGTQVTVSS showed polyreactivity (PSR sort gate) equal to low polyreactivity

---
The reported polyreactivity (PSR sort gate) of the sequence QVQLVESGGGLVQAGGSLRLSCAASGFIFSYYAMGWYRQAPGKERELVAAISSSGSRTYYADSVKGRFTISRDNAKNTVYLQMNSLKPEDTAVYYCNARTTSGWGQGTQVTVSS was high polyreactivity

----------
- assay_procedure: yeast display, Sf9 membrane polyspecificity reagent, FACS + sequencing; frameworks hold sequencing errors
measurement_type: polyreactivity (PSR sort gate)

// polyreactivity (PSR sort gate) lookup, sequence = QVQLVESGVGLVQAGGSLRLSCAASGFTIYRYAMGWYRQAPGKERELVAAISRGVNTNYADSVKGRFTISRDNAKNTVYLQMNSLKPEETAVYDCAARYDNPSYRTTYGFWGQGTQVTLSS , result: high polyreactivity

Quick note, polyreactivity (PSR sort gate) for QVQLVESGGGLVQAGGSLRLSCAASGSIFPDNAMGWYRQAPGKERELVAAITRGGSTYYADSVKGRFTISRDNAKNTVYLQMNSLKPEDTAVYYCAARRRYLWSYDYWGQGTQVTVSS landed at high polyreactivity
